target-under-test: human adenosine A2b receptor (Homo sapiens)
Sequence (P29275 1-332): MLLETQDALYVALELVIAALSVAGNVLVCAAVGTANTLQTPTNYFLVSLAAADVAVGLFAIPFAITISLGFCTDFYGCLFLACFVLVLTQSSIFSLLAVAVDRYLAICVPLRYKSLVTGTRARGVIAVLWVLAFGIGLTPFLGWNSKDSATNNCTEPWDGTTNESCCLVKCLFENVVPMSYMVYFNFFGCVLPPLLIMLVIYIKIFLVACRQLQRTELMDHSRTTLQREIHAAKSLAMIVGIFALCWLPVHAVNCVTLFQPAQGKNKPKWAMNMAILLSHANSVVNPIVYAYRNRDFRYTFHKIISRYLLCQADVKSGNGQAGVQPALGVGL
assay-info: Cellular in vitro reporter gene test for A2b receptor activity (antagonism of NECA)
condition-details: recombinant CHO-K1 cells, CRE-luciferase reporter, co-incubation with EC50 concentration of NECA, 3 hours
pIC50: −log10 of the molar value.
endpoint-name: pIC50

>  <compound>
Cc1c(CN2CCNC(=O)C2=O)sc2c1c(=O)n(C1CC(C)(C)C1)c(=O)n2CCC(F)(F)F

>  <pIC50>
8.28

$$$$

[A] Cc1c(CN2CCNC2=O)sc2c1c(=O)n([C@H]1C[C@@H]1C)c(=O)n2CC1CC1(F)F (stereo partly drawn) [Example 249]
[B] Cc1c(Cn2nc[nH]c2=O)sc2c1c(=O)n(C1(C)CC1)c(=O)n2CC1CC1(F)F (single isomer, unassigned) [Example 67]
Between A and B , whose recorded pIC50 is greater? Bench note: the answer is the label of the chosen record.
A
(A: 8.72, B: 7.27)

====

target-under-test: human adenosine A2b receptor (Homo sapiens)
assay-info: Cellular in vitro reporter gene test for A2b receptor activity (antagonism of NECA)
condition-details: recombinant CHO-K1 cells, CRE-luciferase reporter, co-incubation with EC50 concentration of NECA, 3 hours
pIC50: −log10 of the molar value.
endpoint-name: pIC50

Here is how some compounds turned out for pIC50.
>  <compound>
Cc1c(CN2CCNC2=O)sc2c1c(=O)n(C1CC1C)c(=O)n2CC(F)(F)F (racemic) [Example 237]

>  <pIC50>
8.36

$$$$
>  <compound>
Cc1c(CN2CCNC2=S)sc2c1c(=O)n(C1CC1)c(=O)n2CC1CCCO1 (racemic)

>  <pIC50>
7.82

$$$$
>  <compound>
Cc1c(CN2CCNC2=O)sc2c1c(=O)n(C1CC1)c(=O)n2C[C@@H]1CCCO1

>  <pIC50>
6.62

$$$$
>  <compound>
Cc1c(Cn2nc[nH]c2=O)sc2c1c(=O)n(C1CC1)c(=O)n2C[C@H]1CCCO1

>  <pIC50>
6.85

$$$$
>  <compound>
COCCn1c(=O)n(C2CC(F)(F)C2)c(=O)c2c(C)c(CN3CCNC3=NC(=O)OC)sc21

>  <pIC50>
8.00

$$$$

[I] Cc1c(CN2CCNC2=O)sc2c1c(=O)n(C1(C)CC1)c(=O)n2CC1CC1(F)F (racemic) [Example 63]
[II] Cc1c(CN2CCNC2=O)sc2c1c(=O)n([C@H]1C[C@@H]1C)c(=O)n2CC1CC1(F)F (single isomer, unassigned) [Example 251]
Between I and II , whose recorded pIC50 is greater? Bench note: the answer is the label of the chosen record.
II
(II: 8.20, I: 7.92)

====

target-under-test: human adenosine A2b receptor (Homo sapiens, UniProt P29275)
Sequence (P29275 1-332): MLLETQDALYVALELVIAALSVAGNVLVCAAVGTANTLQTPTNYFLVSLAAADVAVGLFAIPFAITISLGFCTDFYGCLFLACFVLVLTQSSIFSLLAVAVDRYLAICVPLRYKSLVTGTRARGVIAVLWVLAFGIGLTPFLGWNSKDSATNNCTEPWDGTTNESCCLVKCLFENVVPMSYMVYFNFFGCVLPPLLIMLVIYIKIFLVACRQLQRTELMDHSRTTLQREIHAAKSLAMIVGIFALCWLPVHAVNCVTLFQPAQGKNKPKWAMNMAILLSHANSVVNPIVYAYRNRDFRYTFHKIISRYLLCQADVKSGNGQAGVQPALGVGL
assay-info: Cellular in vitro reporter gene test for A2b receptor activity (antagonism of NECA)
condition-details: recombinant CHO-K1 cells, CRE-luciferase reporter, co-incubation with EC50 concentration of NECA, 3 hours
pIC50: −log10 of the molar value.
endpoint-name: pIC50

Here is how some molecules turned out for pIC50.
>  <molecule>
Cc1c(CN2CCNC2=O)sc2c1c(=O)n(C1CC1C)c(=O)n2CC1CC(F)(F)C1 (racemic) [Example 252]

>  <target-under-test>
human adenosine A2b receptor (Homo sapiens, UniProt P29275)

>  <pIC50>
8.85

$$$$
>  <molecule>
Cc1c(CN2CCNC2=O)sc2c1c(=O)n(C1CC1C)c(=O)n2CC(F)F (racemic) [Example 234]

>  <target-under-test>
human adenosine A2b receptor (Homo sapiens, UniProt P29275)

>  <pIC50>
8.72

$$$$
>  <molecule>
COCCn1c(=O)n([C@H]2C[C@@H](OC)C2)c(=O)c2c(C)c(CN3CCNC3=NC(=O)OC)sc21

>  <target-under-test>
human adenosine A2b receptor (Homo sapiens, UniProt P29275)

>  <pIC50>
6.89

$$$$
>  <molecule>
CCCCn1c(=O)n(C2(C)CC2)c(=O)c2c(C)c(Cn3nc[nH]c3=O)sc21

>  <target-under-test>
human adenosine A2b receptor (Homo sapiens, UniProt P29275)

>  <pIC50>
7.31

$$$$
>  <molecule>
Cc1c(CN2CCNC2=S)sc2c1c(=O)n(C1CC1)c(=O)n2CCC(F)(F)F

>  <target-under-test>
human adenosine A2b receptor (Homo sapiens, UniProt P29275)

>  <pIC50>
8.82

$$$$
>  <molecule>
COCCn1c(=O)n(C2CC2OC)c(=O)c2c(C)c(Cn3nc[nH]c3=O)sc21 (single isomer, unassigned) [Example 310]

>  <target-under-test>
human adenosine A2b receptor (Homo sapiens, UniProt P29275)

>  <pIC50>
5.41

$$$$
>  <molecule>
Cc1c(CN2CCNC(=O)C2=O)sc2c1c(=O)n(C1(C)CCC1)c(=O)n2CCC(F)(F)F

>  <target-under-test>
human adenosine A2b receptor (Homo sapiens, UniProt P29275)

>  <pIC50>
7.11

$$$$
>  <molecule>
Cc1c(CN2CCNC2=S)sc2c1c(=O)n(C1CC1)c(=O)n2CCCF

>  <target-under-test>
human adenosine A2b receptor (Homo sapiens, UniProt P29275)

>  <pIC50>
7.92

$$$$

[a] Cc1c(CN2CCNC2=NC#N)sc2c1c(=O)n(C1CC1)c(=O)n2CC1CCCO1 (racemic)
[b] Cc1c(CN2CCNC2=O)sc2c1c(=O)n([C@H]1C[C@@H]1C)c(=O)n2CC1CC1(F)F (single isomer, unassigned) [Example 250]
Between a and b , whose recorded pIC50 is greater? Bench note: the answer is the label of the chosen record.
b
(b: 8.96, a: 7.80)

[a] CCC1(n2c(=O)c3c(C)c(Cn4nc[nH]c4=O)sc3n(CCOC)c2=O)CC1
[b] Cc1c(CN2CCNC2=O)sc2c1c(=O)n(C1CC1)c(=O)n2CCC(F)(F)F
[c] Cc1c(Cn2nc[nH]c2=O)sc2c1c(=O)n(C1CC3(CCC3)C1)c(=O)n2CCC(F)(F)F
Order the records, beginning with the lowest pIC50 and ending with the highest. Write out the labels following the order that was asked for.
a, c, b

[P] Cc1c(Cn2cc[nH]c2=O)sc2c1c(=O)n(C1CC1C)c(=O)n2CCOC(F)(F)F (single isomer, unassigned) [Example 272]
[Q] Cc1c(Cn2nc[nH]c2=O)sc2c1c(=O)n(C1CC1)c(=O)n2CCOC(C)C
Between P and Q , whose recorded pIC50 is greater? Bench note: the answer is the label of the chosen record.
P

====

target-under-test: human adenosine A2b receptor (Homo sapiens, UniProt P29275)
assay-info: Cellular in vitro reporter gene test for A2b receptor activity (antagonism of NECA)
condition-details: recombinant CHO-K1 cells, CRE-luciferase reporter, co-incubation with EC50 concentration of NECA, 3 hours
endpoint-name: IC50 (nM)

>  <molecule>
Cc1c(Cn2cc[nH]c2=O)sc2c1c(=O)n(C1CC1)c(=O)n2CCC(F)(F)F [Example 14]

>  <unit-abbreviation>
nM

>  <numeric-result>
3.7

$$$$

[A] Cc1c(CN2CCNC2=O)sc2c1c(=O)n(C1CC1C)c(=O)n2CC(F)F (single isomer, unassigned) [Example 235]
[B] CO[C@H]1C[C@@H](n2c(=O)c3c(C)c(Cn4nc[nH]c4=O)sc3n(CCC(F)(F)F)c2=O)C1 [Example 158]
Between A and B , whose recorded IC50 is greater? Bench note: the answer is the label of the chosen record.
B
(B: 180 nM, A: 18 nM)

Origin of values: patent US20200016159A1
